test.system: 5HT-Transporter (Homo sapiens, UniProt P31645)
Construct: Human platelet membranes (Oceanix Biosciences Corporation, Hanover, Md., USA) were thawed; tissue Oceanix Biosciences Corporation, Hanover, Md., USA; host or cells: human platelet membranes
Sequence (P31645 whole entry): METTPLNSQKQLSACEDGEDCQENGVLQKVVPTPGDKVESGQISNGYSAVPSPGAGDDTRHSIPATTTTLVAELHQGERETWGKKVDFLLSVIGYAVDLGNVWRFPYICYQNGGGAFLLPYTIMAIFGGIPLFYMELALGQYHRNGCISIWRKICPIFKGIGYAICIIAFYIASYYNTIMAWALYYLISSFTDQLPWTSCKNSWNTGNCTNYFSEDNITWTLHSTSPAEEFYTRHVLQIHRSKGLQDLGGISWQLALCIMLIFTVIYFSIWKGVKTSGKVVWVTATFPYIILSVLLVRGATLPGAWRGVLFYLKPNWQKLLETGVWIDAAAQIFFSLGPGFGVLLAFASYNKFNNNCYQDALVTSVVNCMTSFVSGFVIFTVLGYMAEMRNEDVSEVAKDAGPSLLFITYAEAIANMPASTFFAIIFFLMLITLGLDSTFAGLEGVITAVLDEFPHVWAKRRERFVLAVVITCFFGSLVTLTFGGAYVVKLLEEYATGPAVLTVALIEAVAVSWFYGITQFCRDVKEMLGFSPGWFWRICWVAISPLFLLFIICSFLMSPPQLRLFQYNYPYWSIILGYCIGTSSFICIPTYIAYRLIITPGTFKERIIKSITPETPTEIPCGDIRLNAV
protocol: Binding experiment for the 5HT-transporter ([3H]paroxetine, human platelet membranes)
reported.conditions: [3H]paroxetine 0.5 nM, read-out: h-5HTT pIC50 (converted)
observable: IC50 (nM)

// worked examples, IC50 included
compound	unit.descriptor	measured
C/C(=C\c1ccccc1)CN1CCC(Nc2nccn(CC(=O)N(Cc3ccccc3)c3ccccc3)c2=O)CC1	nM	794
COC(=O)CCCCn1ccnc(NC2CCN(C/C(C)=C/c3ccccc3)CC2)c1=O	nM	794
C/C(=C\c1ccccc1)CN1CCC(Nc2nccn(-c3ccccc3)c2=O)CC1	nM	1260
C/C(=C\c1ccccc1)CN1CCC(Nc2nccn(-c3cccc(CNCC4CCCO4)c3)c2=O)CC1 (stereo not shown)	nM	794

A = C/C(=C\c1ccccc1)CN1CCC(Nc2nccn(CCCN(Cc3ccccc3)C(=O)Nc3ccccc3)c2=O)CC1
B = C/C(=C\c1ccccc1)CN1CCC(Nc2nccn(CC(=O)c3cccc(-c4ccccc4)c3)c2=O)CC1
C = C/C(=C\c1ccccc1)CN1CCC(Nc2nccn(CC(=O)NCc3ccc(F)cc3)c2=O)CC1
D = C/C(=C\c1ccccc1)CN1CCC(Nc2nccn(CC(=O)N3CCC(C(F)(F)F)CC3)c2=O)CC1
Put the compounds in ascending order of IC50. Would you mind listing the labels in the order asked for? C, A, B, D

Provenance of the data: patent US20090111801A1
